targetOrTestSystem: ScMyo5
protocolDetails: SPOT peptide array binding signal intensity (averaged, normalized) (arbitrary units (background-subtracted, floor 0; scale differs between SH3 domains)); higher = stronger binding of the SH3 domain to the peptide
valueKind: SPOT peptide array binding signal intensity

binder | valuePrefix | reported
QGYPRQPQRPQRYHP | ≤ | 0
NLDRSKISLPDFDDE | = | 4
TTNRGPPPLPPRANV | = | 277
DLFKPLPEPPTELGR | ≤ | 0
NGRRRPKFRVQLSGN | = | 4.75
RSKRLFPVRPMATAH | = | 3
DRIRMFIRFPKFLLE | = | 1
